# Protocol notes: Intrinsic clearance in mouse liver at 1 uM measured up to 1 hr in presence of NADPH by LC-MS/MS analysis
# Type: ADME, tissue-based
Quantity measured: CLH (mL/min/kg)
Answer in mL/min/kg, number only, no unit symbol.

Entry COc1cc(C(=O)NC2CCNCC2)ccc1Nc1nc(Nc2ccccc2P(C)(C)=O)c2cc[nH]c2n1 ; CLH = 39.9

###

# Protocol notes: Intrinsic clearance in mouse liver microsomes at 1 uM measured up to 1 hr in presence of NADPH by LC-MS/MS analysis
# Type: ADME, Microsome
# Details: read-out: CLH
Quantity measured: microsomal CLint at 1 µM (µL/min/mg)
Field format: number, assumed µL/min/mg, no unit text.

GET /value?item= COc1cc(C(=O)NC2CCNCC2)ccc1Nc1nc(Nc2ccccc2P(C)(C)=O)c2cc[nH]c2n1 &field=microsomal CLint at 1 µM returns 10.1

###

# Protocol notes: Half life in human liver microsomes at 1 uM measured up to 1 hr by LC-MS/MS analysis
# Type: ADME, Microsome
Quantity measured: half-life at 1 µM (h)
Report the figure in h without appending any unit label.

Input COc1cc(C(=O)NC2CCNCC2)ccc1Nc1nc(Nc2ccccc2P(C)(C)=O)c2cc[nH]c2n1 . Output half-life at 1 µM: 1.79

###

# Protocol notes: Metabolic stability in mouse liver microsomes assessed as compound remaining at 1 uM measured up to 1 hr in presence of NADPH by LC-MS/MS analysis
# Format: ADME, Microsome
# Details: read-out: Stability
Quantity measured: remaining at 1 h, 1 µM (%)
Number in %, nothing else.

Value of remaining at 1 h, 1 µM reported for the molecule COc1cc(C(=O)NC2CCNCC2)ccc1Nc1nc(Nc2ccccc2P(C)(C)=O)c2cc[nH]c2n1 is 75.4

###

# Protocol notes: Intrinsic clearance in human liver at 1 uM measured up to 1 hr in presence of NADPH by LC-MS/MS analysis
# Type: ADME, tissue-based
Quantity measured: CLH (mL/min/kg)
Response body: numeric value in mL/min/kg, unit text excluded.

// CLH value for COc1cc(C(=O)NC2CCNCC2)ccc1Nc1nc(Nc2ccccc2P(C)(C)=O)c2cc[nH]c2n1 : 11.6

###

# Assay system: CYP2C19 (Homo sapiens)
# Sequence (P33261 whole entry): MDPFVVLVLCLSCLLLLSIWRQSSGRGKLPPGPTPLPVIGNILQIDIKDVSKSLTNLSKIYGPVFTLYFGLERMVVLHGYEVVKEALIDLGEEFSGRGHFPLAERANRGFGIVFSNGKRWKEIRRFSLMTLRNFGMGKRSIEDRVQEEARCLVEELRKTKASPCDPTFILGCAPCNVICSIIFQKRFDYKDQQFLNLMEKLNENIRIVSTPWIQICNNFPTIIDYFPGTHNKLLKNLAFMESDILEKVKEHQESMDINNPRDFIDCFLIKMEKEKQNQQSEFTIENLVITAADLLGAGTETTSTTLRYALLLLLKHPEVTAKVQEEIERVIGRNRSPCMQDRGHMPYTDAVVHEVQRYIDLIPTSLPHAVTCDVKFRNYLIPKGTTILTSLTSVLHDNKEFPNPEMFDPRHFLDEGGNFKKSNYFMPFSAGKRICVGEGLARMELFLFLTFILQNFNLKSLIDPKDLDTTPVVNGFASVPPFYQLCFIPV
# Protocol notes: Inhibition of CYP2C19 in human pooled liver microsomes at 10 uM using S-mephenytoin as substrate preincubated for 10 mins followed by NADPH addition and measured after 15 mins by LC/MS/MS analysis relative to control
# Format: ADME
# Details: probe S-mephenytoin
Quantity measured: inhibition at 0.25 h, 10 µM (%)
Field: numeric (%). Do not append units.

Record summary for COc1cc(C(=O)NC2CCNCC2)ccc1Nc1nc(Nc2ccccc2P(C)(C)=O)c2cc[nH]c2n1 : reported inhibition at 0.25 h, 10 µM = 4.9

###

# Protocol notes: Metabolic stability in human liver microsomes assessed as compound remaining at 1 uM measured up to 1 hr in absence of NADPH by LC-MS/MS analysis
# Assay type: ADME, Microsome
# Details: read-out: Stability
Quantity measured: remaining at 1 h, 1 µM (%)
Response body: numeric value in %, unit text excluded.

// recorded remaining at 1 h, 1 µM for COc1cc(C(=O)NC2CCNCC2)ccc1Nc1nc(Nc2ccccc2P(C)(C)=O)c2cc[nH]c2n1 : 81.2

meta.source: ChEMBL document CHEMBL4311976
